Assay: soluble on expression in E. coli; label from the status in PepcDB or PDB records

>  <Sequence Input>
GPGSMSSIPVDVLNAVTQCNEKVTAVEKEIEEFTNQVRIDFRSKIEPLFDKRHLELEKIEGFWGSAFVAVESPLMGLLNGTIDPKIVRALTDFRVKTSVRDGSICRCVSVTFRPNMFVKEGTFSRELDPSVNTLSLQPILWKPGTEKARTDSLFRFFSPECKDIEFLERALTEFDELFQNPLLAFE

>  <soluble on expression in E. coli>
not soluble

$$$$
>  <Sequence Input>
MAEETIFSKIIRREIPSDIVYQDDLVTAFRDISPQAPTHILIIPNILIPTVNDVSAEHEQALGRMITVAAKIAEQEGIAEDGYRLIMNTNRHGGQEVYHIHMHLLGGRPLGPMLAHKGL

>  <soluble on expression in E. coli>
soluble

$$$$
>  <Sequence Input>
MVHFIFIALRSMRFMRRLVRNLQYLLLPITSSLLFI

>  <soluble on expression in E. coli>
soluble

$$$$
>  <Sequence Input>
GPGSMKRLLDSAKHLLRGGSLGYLASGEPYHPFGEDFGLTVFPDYIQLREKLALRSGYVDVYTQRSASIKLSDGRFQLPPLPKHSFLPLVERLEQDGIVPRGWLNNQTANLYEPEDFIRAHIDNLFVYDDIFAVISLGANALLRFVHVQNGEELDVVIPDGSVYIMSGPSRYVYFHMVLPVEAQRVSIVFRRSILNSDGGFRPVSTPLGDLMPYRSTQILNTLYAKQIGGVRVAVDDKYLEKEEIGAFDTGKWVKGLHPLRDWTLLSQLDEDEARVLELREKRYLDVDLSWRFTELRKRYKELEDMLRV

>  <soluble on expression in E. coli>
not soluble

$$$$
>  <Sequence Input>
MSLDRVYHEFGATLRQLYQQDTPIIALCAAGIVIRTLAPLLLEKGAEPPVLAVAEDGSAVVPLLGGLGGVNVMAREIAAGLGVAAAITTSGELRFGTCLLNPPSGYALGDLELGKRFVSDLLGGESVRIEGAAPWLAAAKLPENDQARLTIRVGSAEREPVANELLIYPRSVLVACRGQRLAGEADSDLATHIRQALHQARIAVQSVACLLAADRDMADRALHQAAAQLGVPLRFLPAADSVAELAQQAVPQLLPPLKVGEDIAIAVASQPLDPEQIGRPREGHHHHHH

>  <soluble on expression in E. coli>
not soluble

$$$$
>  <Sequence Input>
GGGSCYFIPNEGVPGDSTRKCMDLKGNKHPINSEWQTDNCETCTCYETEISCCTLVSTPVGYDKDNCQRIFKKEDCKYIVVEKKDPKKTCSVSEWII

>  <soluble on expression in E. coli>
soluble

$$$$
>  <Sequence Input>
SNANCKKIGEDSKIIIRQITDNDLELLMAWRSNPLIYKFFYIQKEPLKWEEHYSWWMSRENRVDWIILLRENNTIRKVGSVNVSQLNTDNPEIGILIGEFFLWGKHIGRHSVSLVLKWLKNIGYKKAHARILENNIRSIKLFESLGFKKTKKGRENEWIYEVNL

>  <soluble on expression in E. coli>
soluble

$$$$
>  <Sequence Input>
MGSDKIHHHHHHMNHFFVEFGEYEASVCEWGDKSNPQIICFHGLGSTKLSFIEVAELLKDSYHIVSFDLPGHGKTQNFEKDEDYGASHLTNWVVALLEHIGKETFHIVAHSWGASVALHYAAECPEKVNKIVLLDGGYHHGKMNADYFANLYKDAKEGECPPRSLEEEITHYENDFDEYIFDSKETFIQSEKLAYSRWSPLLERAVYDLMREEDSKVKWHATGDTARGVIKFQYTVYKTLKPHKIKSDILLLYCDLPDNYLEIRELQIVEFKKRINITTKLYKDTGHLMHWDRPEEIAEDVLHWFK

>  <soluble on expression in E. coli>
not soluble

$$$$
>  <Sequence Input>
SLKEVLDEKFPSNNKLEVGLGRDISGDPITVPLNEMPHLLVAGSTGSGKSVCINGIITSILLNAKPHEVKLMLIDPKMVELNVYNGIPHLLIPVVTNPHKAAQALEKIVAEMERRYDLFQHSSTRNIKGYNELIRKQNQELDEKQPELPYIVVIVDELADLMMVAGKEVENAIQRITQMARAAGIHLIVATQRPSV

>  <soluble on expression in E. coli>
not soluble

$$$$
>  <Sequence Input>
MLMNNNNVYSLNNFDFLARSFARMQAEGRPVDIQAVTGNMDEEHRDWFCKRYALYCQQATQAKRLELEH

>  <soluble on expression in E. coli>
not soluble

$$$$
>  <Sequence Input>
MMQALTYYRDLAANTMPGSNDIMEVKDAFMNGTAPMAIYSTYILPAVIKEGDPKNVGFVVPTEKNSAVYGMLTSLTITAGQKTEETEAAEKFVTFMEQADNIADWVMMSPGAALPVNKAVVTTSTWKDNDVIKALGELPNQLIGELPNIQVFGAVGDKKFTRMGDVTGSGVVSSMVHNVTVGKADLPGTLQTSQKKLDELIEQH

>  <soluble on expression in E. coli>
not soluble

$$$$
>  <Sequence Input>
MGHHHHHHSHMTAPFFPRILGAVAFLNQETEPLTMNLQHHFLIAMPALQDPIFRRSVVYICEHNTNGAMGIIVNKPLENLKIEGILEKLKITPEPRDESIRLDKPVMLGGPLAEDRGFILHTPPSNFASSIRISDNTVMTTSRDVLETLGTDKQPSDVLVALGYASWEKGQLEQEILDNAWLTAPADLNILFKTPIADRWREAAKLIGVDILTMPGVAGHA

>  <soluble on expression in E. coli>
soluble

$$$$
>  <Sequence Input>
GSHMASGDATDITIYYKTGWTHPHIHYSLNQGAWTTLPGVPLTKSEYEGYVKVTIEAEEGSQLRAAFNNGSGQWDNNQGRDYDFSSGVHTLADGRILSGTPK

>  <soluble on expression in E. coli>
soluble

$$$$
>  <Sequence Input>
MSTDIDCIVIGAGVVGLAIARALAAGGHEVLVAEAAEGIGTGTSSRNSEVIHAGIYYPADSLKARLCVRGKHLLYEYCAARGVPHQRLGKLIVATSDAEASQLDSIARRAGANGVDDLQHIDGAAARRLEPALHCTAALVSPSTGIVDSHALMLAYQGDAENDGAQLVFHTPLIAGRVRPEGGFELDFGGAEPMTLSCRVLINAAGLHAPGLARRIEGIPQDSIPPEYLCKGSYFTLAGRAPFSRLIYPVPQHAGLGVHLTLELGGQAKFGPDTEWITTEDYTLDPRRADVFYAAVRSYWPALPDGALAPGYTGIRPKISGPHEPAADFAIAGPASHGVAGLVNLYGIKSPGLTASLAIAEETLARLAALEHHHHHH

>  <soluble on expression in E. coli>
not soluble

$$$$
>  <Sequence Input>
MENRKLAVLIDADNAQSSLIAELLAEVAKYGTAIVKRAYGDWTTTQLKGWKEVLHQYAISPIQQFAYTKGKNSTDSALIIDAMDLLYTGNFDGFCLVSSDSDFTRLATRLREGGLTVIGLGEQSKTPRPFIAACDKFVFTEILRPAPPAKPKPETAATADKPKARSSRTRAKAAPHKEKHPLQDMFTSAIEAVARDSGWAELSAVGSYLAKNDPSFDPRNWGHGRLSQMVKKLDFLTVQESRNGSKLHSEIRLRHDGEAAVAEPAAPVETPQPSPSEEAAPPPRKKRSPRKKISPAGLEHHHHHH

>  <soluble on expression in E. coli>
soluble

$$$$

---

Assay: soluble on expression in E. coli; label from the status in PepcDB or PDB records

>  <Sequence Input>
MGSDKIHHHHHHMLSKMEINKLAMKESMTLLACPICGGEFSFSEPNSFICKNHHGFDIAKPGYLHLLKQVHKTKYDQALFESRKKVIASGFFEKLIERVTEIIAETKKEEVVIYDAGSGEGSHLARVVKNLQEKGRHVQAIGLDIAKEGVKQAARDYPGIVWTVADLANCPTQTETADVILNILSPSNYEEFKRLLKTDGFLLKVVPEANYLRELREFIYVDEKSSYSNESVTSRLAEKLTVEYVERVTYKAPIANELFADFLEMTPLGWHIDKDKKSELLINPPKELTVDLKIIIANRAHLL

>  <soluble on expression in E. coli>
not soluble

$$$$
>  <Sequence Input>
GNWAEITDEISKIYQDNQYKIRQINDVDAVSDKRREALQALFEHTGRNVIVYYSAWLENGRRFSGQSTDFSVNDTDKNSFMTALHKLDQSKGLDLILHTPGGDVAATESLVDYIHALFGQDFRVIVPQLAMSAGTMIALSSKEIVMGKHSSLGPIDPQFNGLPAHGLLEEFEQAKKEVSENPQTAHIWQVILNKYNPTMLGEAKKAIQWSNSMVKQWLEKGMFLDEPDKEEKATRAIKELADHSVTLAHNRHISVSKALELGLNIKELESDPKLQDLVLTLHHLSVIAAQRGPLIKFVVNHDNRGTF

>  <soluble on expression in E. coli>
not soluble

$$$$
